Molecular target: huPD-L1 (Homo sapiens, UniProt Q9NZQ7)
Sequence (Q9NZQ7 19-290): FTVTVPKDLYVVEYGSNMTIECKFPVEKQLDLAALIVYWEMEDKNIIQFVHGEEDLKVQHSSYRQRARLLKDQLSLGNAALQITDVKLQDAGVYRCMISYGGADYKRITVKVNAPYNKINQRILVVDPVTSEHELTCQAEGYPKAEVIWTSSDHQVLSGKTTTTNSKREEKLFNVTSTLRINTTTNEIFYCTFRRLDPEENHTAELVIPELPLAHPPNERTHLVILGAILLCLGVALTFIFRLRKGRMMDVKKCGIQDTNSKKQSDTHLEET
Experiment: Flow binding to CHO cells stably expressing PD-L1
Set-up: huCTLA4 and huPD-L1, full-length mammalian surface expression constructs were generated; expressed in transfected cells; host or cells: CHO cells, lentiviral transduction, sorted to >98% purity
Settings: Table E19; ratio of MFI at 33.3 nM
readout.label: Ratio of PDL1:CD28
Give bare numbers.

Some molecules with recorded Ratio of PDL1:CD28:
E35D/D46V/M47L/V68M/L85Q (protein) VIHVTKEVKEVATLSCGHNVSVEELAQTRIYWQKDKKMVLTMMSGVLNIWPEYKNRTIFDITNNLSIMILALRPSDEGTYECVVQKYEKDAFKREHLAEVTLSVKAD: 61.2
D46V/M47L/V68M (protein) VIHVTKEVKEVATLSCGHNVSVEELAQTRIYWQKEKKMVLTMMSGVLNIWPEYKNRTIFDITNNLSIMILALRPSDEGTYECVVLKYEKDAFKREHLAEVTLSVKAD: 12.8
E35D/D46V/M47V/V68M/L85Q (protein) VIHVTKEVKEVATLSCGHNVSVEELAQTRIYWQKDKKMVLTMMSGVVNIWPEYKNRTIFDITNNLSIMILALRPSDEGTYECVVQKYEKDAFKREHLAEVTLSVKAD: 79.4

Next molecule, please.
-- ask In one line, give reported Ratio of PDL1:CD28 of the entry E35D/N48K (protein) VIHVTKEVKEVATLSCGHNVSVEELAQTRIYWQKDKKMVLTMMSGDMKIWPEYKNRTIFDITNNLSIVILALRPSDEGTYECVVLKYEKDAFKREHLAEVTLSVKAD .
-- reply 33.7
